- assay name: self-splicing fitness, log relative to wild type (ln ratio); higher = more splicing; Tetrahymena group I intron in knt gene, E. coli kanamycin selection, DiMSum; sequences stand for … in CUCUCU…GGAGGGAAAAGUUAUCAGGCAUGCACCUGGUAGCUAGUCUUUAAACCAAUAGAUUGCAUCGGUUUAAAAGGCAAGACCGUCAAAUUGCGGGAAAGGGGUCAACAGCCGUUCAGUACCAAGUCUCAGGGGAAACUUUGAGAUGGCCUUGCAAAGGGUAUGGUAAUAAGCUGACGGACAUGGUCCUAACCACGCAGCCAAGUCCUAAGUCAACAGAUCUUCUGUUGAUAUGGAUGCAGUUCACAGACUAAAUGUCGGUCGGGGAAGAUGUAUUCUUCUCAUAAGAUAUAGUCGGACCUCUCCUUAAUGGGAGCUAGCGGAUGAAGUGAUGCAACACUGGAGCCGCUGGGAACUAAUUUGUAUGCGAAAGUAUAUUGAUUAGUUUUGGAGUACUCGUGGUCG;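 also: selection with 25 µg/mL kanamycin versus none on LB agar overnight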
- setup conditions: 30 °C
Classify by measured self-splicing fitness (ln): true (1) if it is equal to or exceeds -2, false (0) if it is smaller.

[
  {
    "sequence data": "UCGCAGCAAUAUUACGAGUA",
    "discrete label": "false (0)"
  },
  {
    "sequence data": "UAGUAGCAAUAUUACGUUUU",
    "discrete label": "false (0)"
  },
  {
    "sequence data": "AGGCAGCAAUAUUACGCUGA",
    "discrete label": "false (0)"
  },
  {
    "sequence data": "CUUAAGCAAUAUUACGGAGG",
    "discrete label": "false (0)"
  },
  {
    "sequence data": "CUGCAGCAAUAUUACGAACA",
    "discrete label": "false (0)"
  },
  {
    "sequence data": "GUACAGCAAUAUUACGGGAG",
    "discrete label": "false (0)"
  },
  {
    "sequence data": "GGCCAGCAAUAUUACGAGGG",
    "discrete label": "false (0)"
  },
  {
    "sequence data": "UGCCAGCAAUAUUACGUGGC",
    "discrete label": "false (0)"
  },
  {
    "sequence data": "CCCCAGCAAUAUUACGGCCG",
    "discrete label": "false (0)"
  },
  {
    "sequence data": "UUAAAGCAAUAUUACGUCGG",
    "discrete label": "true (1)"
  },
  {
    "sequence data": "GUUUAGCAAUAUUACGACUC",
    "discrete label": "true (1)"
  },
  {
    "sequence data": "UUUGAGCAAUAUUACGAACA",
    "discrete label": "false (0)"
  },
  {
    "sequence data": "ACCGAGCAAUAUUACGCGCU",
    "discrete label": "false (0)"
  },
  {
    "sequence data": "AAUAAGCAAUAUUACGCUAU",
    "discrete label": "false (0)"
  },
  {
    "sequence data": "CUCCAGCAAUAUUACGGUGC",
    "discrete label": "false (0)"
  },
  {
    "sequence data": "AUUUAGCAAUAUUACGACCG",
    "discrete label": "true (1)"
  },
  {
    "sequence data": "UUCCAGCAAUAUUACGAGAU",
    "discrete label": "false (0)"
  },
  {
    "sequence data": "ACUGAGCAAUAUUACGGGAA",
    "discrete label": "false (0)"
  },
  {
    "sequence data": "GAGCAGCAAUAUUACGCUCU",
    "discrete label": "false (0)"
  },
  {
    "sequence data": "ACUUAGCAAUAUUACGCCCG",
    "discrete label": "true (1)"
  },
  {
    "sequence data": "UAUGAGCAAUAUUACGGUCA",
    "discrete label": "false (0)"
  },
  {
    "sequence data": "UUCCAGCAAUAUUACGCCUC",
    "discrete label": "true (1)"
  },
  {
    "sequence data": "UUCGAGCAAUAUUACGCGUU",
    "discrete label": "true (1)"
  },
  {
    "sequence data": "CUUUAGCAAUAUUACGUUAA",
    "discrete label": "false (0)"
  },
  {
    "sequence data": "AGCUAGCAAUAUUACGGGUA",
    "discrete label": "true (1)"
  },
  {
    "sequence data": "AUACAGCAAUAUUACGGGUU",
    "discrete label": "true (1)"
  },
  {
    "sequence data": "GUCCAGCAAUAUUACGACGU",
    "discrete label": "true (1)"
  },
  {
    "sequence data": "CUCCAGCAAUAUUACGGGUA",
    "discrete label": "true (1)"
  },
  {
    "sequence data": "AAGCAGCAAUAUUACGAUAA",
    "discrete label": "true (1)"
  },
  {
    "sequence data": "UUGGAGCAAUAUUACGGCUG",
    "discrete label": "false (0)"
  },
  {
    "sequence data": "UGUAAGCAAUAUUACGCGAC",
    "discrete label": "false (0)"
  },
  {
    "sequence data": "GUCCAGCAAUAUUACGUGAC",
    "discrete label": "true (1)"
  },
  {
    "sequence data": "GUAGAGCAAUAUUACGUGGC",
    "discrete label": "true (1)"
  },
  {
    "sequence data": "GCUGAGCAAUAUUACGAGCA",
    "discrete label": "true (1)"
  },
  {
    "sequence data": "UCUUAGCAAUAUUACGGUCG",
    "discrete label": "true (1)"
  },
  {
    "sequence data": "AAUCAGCAAUAUUACGAUUU",
    "discrete label": "true (1)"
  },
  {
    "sequence data": "AUGUAGCAAUAUUACGGGCA",
    "discrete label": "true (1)"
  },
  {
    "sequence data": "CCGUAGCAAUAUUACGGCGC",
    "discrete label": "false (0)"
  },
  {
    "sequence data": "CGCCAGCAAUAUUACGCCCG",
    "discrete label": "true (1)"
  },
  {
    "sequence data": "GCGAAGCAAUAUUACGUGAA",
    "discrete label": "false (0)"
  },
  {
    "sequence data": "AUUCAGCAAUAUUACGUCUU",
    "discrete label": "true (1)"
  },
  {
    "sequence data": "CAGGAGCAAUAUUACGUAAA",
    "discrete label": "true (1)"
  },
  {
    "sequence data": "GGAGAGCAAUAUUACGUUUU",
    "discrete label": "false (0)"
  },
  {
    "sequence data": "UUCGAGCAAUAUUACGUUAU",
    "discrete label": "false (0)"
  },
  {
    "sequence data": "AUAAAGCAAUAUUACGAGGC",
    "discrete label": "false (0)"
  },
  {
    "sequence data": "UGCAAGCAAUAUUACGUCAU",
    "discrete label": "false (0)"
  },
  {
    "sequence data": "CGUAAGCAAUAUUACGCUGU",
    "discrete label": "false (0)"
  },
  {
    "sequence data": "AACGAGCAAUAUUACGGCGU",
    "discrete label": "true (1)"
  },
  {
    "sequence data": "AUAGAGCAAUAUUACGUCCA",
    "discrete label": "false (0)"
  },
  {
    "sequence data": "CACUAGCAAUAUUACGGAUC",
    "discrete label": "true (1)"
  },
  {
    "sequence data": "AUACAGCAAUAUUACGGGUG",
    "discrete label": "true (1)"
  },
  {
    "sequence data": "GAACAGCAAUAUUACGAAUC",
    "discrete label": "true (1)"
  },
  {
    "sequence data": "GAAAAGCAAUAUUACGAAGA",
    "discrete label": "false (0)"
  },
  {
    "sequence data": "CUGUAGCAAUAUUACGGCUU",
    "discrete label": "false (0)"
  },
  {
    "sequence data": "AGAUAGCAAUAUUACGGGUU",
    "discrete label": "false (0)"
  },
  {
    "sequence data": "AGGUAGCAAUAUUACGGAUA",
    "discrete label": "false (0)"
  },
  {
    "sequence data": "CAAAAGCAAUAUUACGAGCC",
    "discrete label": "false (0)"
  },
  {
    "sequence data": "AAGGAGCAAUAUUACGCGAC",
    "discrete label": "false (0)"
  },
  {
    "sequence data": "UCUUAGCAAUAUUACGGAAC",
    "discrete label": "true (1)"
  },
  {
    "sequence data": "UAAAAGCAAUAUUACGACAA",
    "discrete label": "true (1)"
  },
  {
    "sequence data": "AGGCAGCAAUAUUACGCACU",
    "discrete label": "true (1)"
  },
  {
    "sequence data": "UUAGAGCAAUAUUACGACGU",
    "discrete label": "false (0)"
  },
  {
    "sequence data": "CCCGAGCAAUAUUACGUGGA",
    "discrete label": "false (0)"
  },
  {
    "sequence data": "CGUAAGCAAUAUUACGCAGA",
    "discrete label": "false (0)"
  },
  {
    "sequence data": "GCCCAGCAAUAUUACGCCAU",
    "discrete label": "false (0)"
  },
  {
    "sequence data": "GCCAAGCAAUAUUACGCCAG",
    "discrete label": "false (0)"
  },
  {
    "sequence data": "CAAUAGCAAUAUUACGCAGA",
    "discrete label": "false (0)"
  }
]
